FYI, the data here is from the supplement of paper PMC10567573.

For each of the sequences below, state its protein stability index.
Experiment: protein stability index of a GFP-peptide fusion (GPS, HEK-293T) (PSI 1-6); higher = more stable;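 further: 24-mer peptide tiles fused after GFP, lentivirally expressed, FACS-sorted into six equal bins by GFP/DsRed ratio, decoded by Illumina sequencing, PSI is the read-weighted mean bin number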
Details: treatment: DMSO; c terminus: a fixed tail appended
Give bare numbers.

// worked examples, protein stability index included
[
  {
    "Sequence Record": "LHLLYLLEKVECTPSQEHLKHQTV [FEM1A]",
    "protein stability index": 2.29
  },
  {
    "Sequence Record": "GEQDCCGERVVINISGLRFETQLK [KCNA3]",
    "protein stability index": 2.52
  },
  {
    "Sequence Record": "AKGLAESLELPKAIQDQLPRLQQL [FANCE]",
    "protein stability index": 3.95
  },
  {
    "Sequence Record": "RTSSGNVWVTHEEMETLETSTKTD [PPFIA4]",
    "protein stability index": 5.24
  }
]

For each of the items listed, what is its protein stability index?
1. GLSQAPQPLADEGPPGRSIGGAAP [SERTAD1]
2. SGAGGTGGPAGQAGRGGAAGTAGV [MYOZ1]
3. LNQQVVSSSEQLQCCQTEIIELRR [KRT36]

Result:
1. 5.05
2. 5.07
3. 4.29

###

Task for the reader: assign each of the following sequences its reported protein stability index.
Assay: protein stability index of a GFP-peptide fusion (GPS, HEK-293T) (PSI 1-6); higher = more stable
Settings: treatment: MLN4924 1 uM, 8 h; c terminus: a fixed tail appended
Give bare numbers.

Use the examples below as a reference point.
[
  {
    "Sequence Record": "VVGFDLELGQAVEVIYPQHSKLTD [DENND6A]",
    "protein stability index": 2.62
  },
  {
    "Sequence Record": "RERFMECLMIGRDLVRLLQNVARI [INTS3]",
    "protein stability index": 2.54
  },
  {
    "Sequence Record": "AASPELSALEEAFRRFAVHGDARA [TPPP]",
    "protein stability index": 3.74
  },
  {
    "Sequence Record": "FDFDDDGTLNREDLSRLVNCLTGE [CIB1]",
    "protein stability index": 4.29
  },
  {
    "Sequence Record": "LEPLGAPQAPAPATATDTFEAAPP [CEBPB]",
    "protein stability index": 5.39
  },
  {
    "Sequence Record": "FIALLILFILSTLVVDYIDEGRLV [SOAT1]",
    "protein stability index": 3.26
  },
  {
    "Sequence Record": "TPTPVAAALDACSGNDPFAPSEGS [SNAP91]",
    "protein stability index": 5.47
  },
  {
    "Sequence Record": "VEEVVYDLSIRGFNKETAAACVEK [TSN]",
    "protein stability index": 4.51
  }
]

Please examine the following record next.
// protein stability index lookup, sequence = YPIYVIPEPPPVSFQPYHPLHFRG [TENT5D] , result: 2.32

###

Assay: protein stability index of a GFP-peptide fusion (GPS, HEK-293T) (PSI 1-6); higher = more stable
Settings: treatment: DMSO; c terminus: a fixed tail appended
Measurement Name: protein stability index
One number for each entry.

Examples from the recorded data:
[
  {
    "Sequence Record": "YSLELGKAIKQKLWEALCSQGAIS [C22orf31]",
    "protein stability index": 2.4
  },
  {
    "Sequence Record": "DVQNKLKESAQCVGDEFLNCKLAT [SNX8]",
    "protein stability index": 3.43
  }
]

With those in mind, consider the next sequence.
Query PLTSTQGLEHAAAGGSSGTTARER [FBF1] yields protein stability index of 5.36

###

Experiment: protein stability index of a GFP-peptide fusion (GPS, HEK-293T) (PSI 1-6); higher = more stable
Conditions: treatment: MLN4924 1 uM, 8 h; c terminus: a fixed tail appended
Please respond with reported protein stability index for every item in the list.
Numbers only.

[
  {
    "Sequence Record": "KSPPQLRQFLPEEFMKTLEKTGPQ [DENND6A]",
    "Result Number": 4.43
  }
]

Lab note: each sequence below needs its protein stability index filled in.
1. QCSMPLHVAPLLAAAGLHASPMSA [NR2F2]
2. KVTLRIRNVRFSDEGGFTCFFRDH [MOG]
3. VVAAVGKELIIFRLVAPTEGSLEW [WDR41]
4. DVHHGNGTQHMFEDDPSVLYVSLH [HDAC6]
5. ADTRRLNSKPQDLTDAYGPPSNFL [SNX12]
6. APEFIKVRENLRRIATLTSEEREL [FAM107A]
7. ERYFIPVSCFLTFNIFDWLGRSLT [SLC29A1]
8. PPGAEEPQAPPASRDEAALPELLL [RETREG3]

Result:
2.63
2.21
2.37
2.93
3.93
4.62
3.08
5.39

###

Assay: protein stability index of a GFP-peptide fusion (GPS, HEK-293T) (PSI 1-6); higher = more stable
Conditions: treatment: DMSO; c terminus: a fixed tail appended
Measurement Name: protein stability index
One number for each entry.

List the reported protein stability index of each sequence below.
1. PCVRPGVSGSPVTQNHAASALPTG [FBF1]
2. HFSQGSALILHQRIHSGEKPYGCV [ZNF24]
3. YERTLGQYQYERYGAVELSGAGRR [IRX6]
4. PPVRPAGYLLSFHTPGGQNQEILL [TNXB]

Result:
4.45
2.24
3.75
2.38

Kindly give each listed record's protein stability index.
1. AAQNCRKRKLDTILNLERDVEDLQ [NFE2L1]
2. HTSTARLLLHRGAGKEAMTSDGYT [RIPK4]
3. SKVLSLQDLCCRAVVSCTPVHLVD [RAB40B]

Result:
[4.09, 3.61, 3.01]

Value sought for every listed sequence: protein stability index.
1. ALCELLEKETQIIASIGRHRYIAY [IQUB]
2. DHARGKSQVALKIIRNVGKYREAA [CLK3]
3. QTVDGKHQDLKYISPETMVALLTG [CDC25B]
4. IGLWGLAVKGSLGSDLGGPLPTDP [TSPAN10]
5. RALDRLQEVPHEGPMCDLLWSDPD [PPP2CA]
6. SYRIHNGQKLVVPGLLGSMALSNH [FBXO3]

Result:
[2.25, 3.15, 2.77, 2.32, 4.42, 2.35]

Working through the 6 sequences below one at a time, give protein stability index for each.
1. QEAFLVQEVVELPVTERQIEREHL [TBC1D10A]
2. HNSGPPPPPARGRGAPPPPPSRAP [WASL]
3. HLYQSSARRYAGPLHHQTQRFRLD [ELAVL3]
4. KVLIQKNLGPKSKVLILRNHGLVS [ADD1]
5. EKEVLRRERAVEWRERAVEKRERA [ZBED2]
6. GEVIHCKLRAMKELSEAAEAQHGP [STX11]

Result:
1. 4.94
2. 5.25
3. 2.99
4. 2.08
5. 4.93
6. 4.03

// for each sequence in input: emit protein stability index
1. LKLVAHPRAKSKVWKYFGFDTNAE [ZBED1]
2. DSGFLGLRPTSVDPALRRRRRGPR [NOP53]
3. GEATAAPAPLCGGPSAEAYLLHPA [TBX6]
4. FLVVLKTVLENEDDMLLFDEQEKG [FAN1]
5. AEVNAVDNEGNSALHIIVQYNRPI [FEM1B]
6. EPSSSKDSDENSKPSVDTEGPALV [MIA2]
7. DPHNSRRGFFFSHVGWLLVRKHPA [SCD]

Result:
1: 2.23; 2: 5.15; 3: 4.17; 4: 2.34; 5: 2.48; 6: 5.53; 7: 2.33

Dear reader, for each entry below, please note its protein stability index.
1. HPLAQNERCLHMFLQEEAIDRNYV [SNX12]
2. TSIGMPSLMYRSPPGAEEPQAPPA [RETREG3]
3. AGISPLQQMVASGTGAVVTSLFMT [SLC25A39]
4. AAAEVGGGVGGSSRARSASSPRGM [ANKRD17]
5. NTNSDPLDPSFPVEFVRHGDIIRL [POMT2]
6. NAFQETWYWHGDVNSNKVVMSGVK [LOXL2]

Result:
1: 3.17; 2: 5.12; 3: 2.02; 4: 4.82; 5: 2.69; 6: 2.75

Parameters: items (list). Returns: protein stability index for each item.
1. KRGGNCPAPAPLVPQDPDLEEEEE [ZBTB22]
2. LIYDFIEDQGGLEAVRQEMRRQEP [WAS]
3. ASSASLEPMWSGSTMRRMALRPTA [EMID1]
4. QLPPVVPVSKPGALRRSLSRSMSQ [TCAP]
5. GMAFFKMREMFFEDHIDDAKYCGH [CNOT7]

Result:
1: 5.56; 2: 2.55; 3: 3.43; 4: 3.97; 5: 2.35

Consider the following items and state reported protein stability index for each.
1. VVDRIQSSGKNVTLLVCGKKAYDY [PDZK1]
2. LSRRQLCPLTPGPGKALGPAATMA [C2CD2L]
3. VQKDHENYMKILLKVGGILVMPIE [PCMTD1]
4. ALSSPRSRKNATQPPNAEEESGSS [INTS3]

Result:
1: 2.42; 2: 2.93; 3: 2.88; 4: 5.24
